- Species: Homo sapiens
- procedureText: Binding affinity to human CCL21 at 100 uM by glycan microarray analysis
measuredMetric: Activity (%)

>>> numericreadout("NCCOCCO[C@@H]1O[C@@H](C(=O)O)[C@@H](O[C@@H]2O[C@@H](C(=O)O)[C@@H](O[C@@H]3O[C@@H](C(=O)O)[C@@H](O[C@@H]4O[C@@H](C(=O)O)[C@@H](OS(=O)(=O)O)[C@H](O)[C@H]4O)[C@H](O)[C@H]3O)[C@H](O)[C@H]2O)[C@H](O)[C@H]1O")
60
>>> numericreadout("NCCOCCO[C@@H]1O[C@@H](C(=O)O)[C@@H](OS(=O)(=O)O)[C@H](O)[C@H]1OS(=O)(=O)O")
79
>>> numericreadout("NCCOCCO[C@@H]1O[C@@H](C(=O)O)[C@@H](O[C@@H]2O[C@@H](C(=O)O)[C@@H](O[C@@H]3O[C@@H](C(=O)O)[C@@H](O[C@@H]4O[C@@H](C(=O)O)[C@@H](OS(=O)(=O)O)[C@H](O)[C@H]4OS(=O)(=O)O)[C@H](O)[C@H]3OS(=O)(=O)O)[C@H](O)[C@H]2OS(=O)(=O)O)[C@H](O)[C@H]1OS(=O)(=O)O")
50
>>> numericreadout("NCCOCCO[C@@H]1O[C@@H](C(=O)O)[C@@H](O[C@@H]2O[C@@H](C(=O)O)[C@@H](OS(=O)(=O)O)[C@H](O)[C@H]2O)[C@H](O)[C@H]1O")
71
>>> numericreadout("NCCOCCO[C@@H]1O[C@@H](C(=O)O)[C@@H](O[C@@H]2O[C@@H](C(=O)O)[C@@H](O[C@@H]3O[C@@H](C(=O)O)[C@@H](OS(=O)(=O)O)[C@H](O)[C@H]3OS(=O)(=O)O)[C@H](O)[C@H]2OS(=O)(=O)O)[C@H](O)[C@H]1OS(=O)(=O)O")
80
>>> numericreadout("NCCOCCO[C@@H]1O[C@@H](C(=O)O)[C@@H](O[C@@H]2O[C@@H](C(=O)O)[C@@H](O[C@@H]3O[C@@H](C(=O)O)[C@@H](OS(=O)(=O)O)[C@H](O)[C@H]3O)[C@H](O)[C@H]2O)[C@H](O)[C@H]1O")
83

----------
- targetSystem: C-C motif chemokine 5 (Homo sapiens) (UniProt P13501)
- Sequence (P13501 whole entry): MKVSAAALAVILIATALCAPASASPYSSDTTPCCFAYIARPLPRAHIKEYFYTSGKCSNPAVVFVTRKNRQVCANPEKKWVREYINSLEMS
- procedureText: Binding affinity to human CCL5 at 100 uM by glycan microarray analysis
measuredMetric: Activity (%)

Below: 2 compounds and their reported Activity.
>>> numericreadout("NCCOCCO[C@@H]1O[C@@H](C(=O)O)[C@@H](O[C@@H]2O[C@@H](C(=O)O)[C@@H](O[C@@H]3O[C@@H](C(=O)O)[C@@H](O[C@@H]4O[C@@H](C(=O)O)[C@@H](OS(=O)(=O)O)[C@H](O)[C@H]4O)[C@H](O)[C@H]3O)[C@H](O)[C@H]2O)[C@H](O)[C@H]1O")
10
>>> numericreadout("NCCOCCO[C@@H]1O[C@@H](C(=O)O)[C@@H](O[C@@H]2O[C@@H](C(=O)O)[C@@H](O[C@@H]3O[C@@H](C(=O)O)[C@@H](O[C@@H]4O[C@@H](C(=O)O)[C@@H](OS(=O)(=O)O)[C@H](O)[C@H]4OS(=O)(=O)O)[C@H](O)[C@H]3OS(=O)(=O)O)[C@H](O)[C@H]2OS(=O)(=O)O)[C@H](O)[C@H]1OS(=O)(=O)O")
91

P = NCCOCCO[C@@H]1O[C@@H](C(=O)O)[C@@H](O[C@@H]2O[C@@H](C(=O)O)[C@@H](O[C@@H]3O[C@@H](C(=O)O)[C@@H](O[C@@H]4O[C@@H](C(=O)O)[C@@H](O)[C@H](O)[C@H]4O)[C@H](O)[C@H]3O)[C@H](O)[C@H]2O)[C@H](O)[C@H]1O
Q = NCCOCCO[C@@H]1O[C@@H](C(=O)O)[C@@H](O[C@@H]2O[C@@H](C(=O)O)[C@@H](OS(=O)(=O)O)[C@H](O)[C@H]2OS(=O)(=O)O)[C@H](O)[C@H]1OS(=O)(=O)O
Hi team, can someone confirm which has the larger Activity: P or Q ? Thanks. Answer = label. Q

----------
- Species: Homo sapiens
- procedureText: Binding affinity to human CCL13 at 100 uM by glycan microarray analysis
measuredMetric: Activity (%)

>>> numericreadout("NCCOCCO[C@@H]1O[C@@H](C(=O)O)[C@@H](O[C@@H]2O[C@@H](C(=O)O)[C@@H](O[C@@H]3O[C@@H](C(=O)O)[C@@H](O[C@@H]4O[C@@H](C(=O)O)[C@@H](OS(=O)(=O)O)[C@H](O)[C@H]4O)[C@H](O)[C@H]3O)[C@H](O)[C@H]2O)[C@H](O)[C@H]1O")
72
>>> numericreadout("NCCOCCO[C@@H]1O[C@@H](C(=O)O)[C@@H](O[C@@H]2O[C@@H](C(=O)O)[C@@H](OS(=O)(=O)O)[C@H](O)[C@H]2OS(=O)(=O)O)[C@H](O)[C@H]1OS(=O)(=O)O")
88
>>> numericreadout("NCCOCCO[C@@H]1O[C@@H](C(=O)O)[C@@H](O[C@@H]2O[C@@H](C(=O)O)[C@@H](O[C@@H]3O[C@@H](C(=O)O)[C@@H](OS(=O)(=O)O)[C@H](O)[C@H]3OS(=O)(=O)O)[C@H](O)[C@H]2OS(=O)(=O)O)[C@H](O)[C@H]1OS(=O)(=O)O")
67
>>> numericreadout("NCCOCCO[C@@H]1O[C@@H](C(=O)O)[C@@H](O[C@@H]2O[C@@H](C(=O)O)[C@@H](O)[C@H](O)[C@H]2O)[C@H](O)[C@H]1O")
82
